Origin of the recorded values: PubChem BioAssay AID1963438

Tested on: NCI-H510 multicellular tumor spheroid growth, % test/control
ASSAY_SUMMARY: Anticancer human tumor NCI-H510 cell line growth inhibition [Asc];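 further: spheroids exposed to agents for 7 days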
CONDITION_LABEL: curve of first compound; second compound 1 µM
PARAMETER_MEASURED: IC50

See these solved cases before continuing.
# COMPOUND, PARAMETER_MEASURED, REPORTED_RESULT
records = [
    ("C#Cc1c(F)ccc2cc(O)cc(-c3ncc4c(N5CC6CCC(C5)N6)nc(OCC56CCCN5CC(F)C6)nc4c3F)c12 (stereo unspecified) + Cc1c(S(C)(=O)=O)c(-c2cc(F)cc(N3CCN(c4ccc(NS(=O)(=O)c5ccc(NC(CCN6CCC(C(=O)OCCCP(=O)(O)O)CC6)CSc6ccccc6)c(S(=O)(=O)C(F)(F)F)c5)cc4)CC3)c2)c(-c2ccc(Cl)cc2)n1C(C)C", "IC50", "> 10000 nM"),
    ("O=C(c1ccc(F)c(F)c1Nc1ccc(I)cc1F)N1CC(O)([C@@H]2CCCCN2)C1 + CNC(C)C(=O)NC1CN(S(=O)(=O)c2cccc(S(=O)(=O)N3CCC4CCC(C(=O)NC(c5ccccc5)c5ccccc5)N4C(=O)C(NC(=O)C(C)NC)C3)c2)CCC2CCC(C(=O)NC(c3ccccc3)c3ccccc3)N2C1=O", "IC50", "> 1000 nM"),
    ("O=C(c1cc(Cc2n[nH]c(=O)c3ccccc23)ccc1F)N1CCN(C(=O)C2CC2)CC1 + CNC(C)C(=O)NC1CN(S(=O)(=O)c2cccc(S(=O)(=O)N3CCC4CCC(C(=O)NC(c5ccccc5)c5ccccc5)N4C(=O)C(NC(=O)C(C)NC)C3)c2)CCC2CCC(C(=O)NC(c3ccccc3)c3ccccc3)N2C1=O", "IC50", "> 10000 nM"),
    ("CNC(C)C(=O)NC1CN(S(=O)(=O)c2cccc(S(=O)(=O)N3CCC4CCC(C(=O)NC(c5ccccc5)c5ccccc5)N4C(=O)C(NC(=O)C(C)NC)C3)c2)CCC2CCC(C(=O)NC(c3ccccc3)c3ccccc3)N2C1=O (stereo unspecified) + Cc1c(S(C)(=O)=O)c(-c2cc(F)cc(N3CCN(c4ccc(NS(=O)(=O)c5ccc(NC(CCN6CCC(C(=O)OCCCP(=O)(O)O)CC6)CSc6ccccc6)c(S(=O)(=O)C(F)(F)F)c5)cc4)CC3)c2)c(-c2ccc(Cl)cc2)n1C(C)C", "IC50", "> 1000 nM"),
]

Exercise: Identify the reported IC50 for the following entry. NC(=O)C(=Cn1cnc(-c2cc(C(F)(F)F)cc(C(F)(F)F)c2)n1)c1cncnc1 + Cc1c(S(C)(=O)=O)c(-c2cc(F)cc(N3CCN(c4ccc(NS(=O)(=O)c5ccc(NC(CCN6CCC(C(=O)OCCCP(=O)(O)O)CC6)CSc6ccccc6)c(S(=O)(=O)C(F)(F)F)c5)cc4)CC3)c2)c(-c2ccc(Cl)cc2)n1C(C)C
Solution: 73.4 nM

Exercise: Identify the reported IC50 for the following entry. COc1c(OCCCN2CCOCC2)ccc2c3n(c(=NC(=O)c4cnc(N)nc4)nc12)CCN3 + CNC(C)C(=O)NC1CN(S(=O)(=O)c2cccc(S(=O)(=O)N3CCC4CCC(C(=O)NC(c5ccccc5)c5ccccc5)N4C(=O)C(NC(=O)C(C)NC)C3)c2)CCC2CCC(C(=O)NC(c3ccccc3)c3ccccc3)N2C1=O
Solution: > 1000 nM

###

Each item that follows carries a reported viability, T/C.
Test system: NCI-H510 multicellular tumor spheroid growth, % test/control
ASSAY_SUMMARY: Anticancer human tumor NCI-H510 cell line growth inhibition [Asc];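 further: spheroids exposed to agents for 7 days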;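 on viability, T/C: 100% = DMSO vehicle control wells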
CONDITION_LABEL: second compound 0.0949 µM; first compound 0.316 µM; stronger effect = lower value
Enter your answer as a number in %; do not include the unit.

See these solved cases before continuing.
# MOLECULE, REPORTED_RESULT
records = [
    ("C#Cc1c(F)ccc2cc(O)cc(-c3ncc4c(N5CC6CCC(C5)N6)nc(OCC56CCCN5CC(F)C6)nc4c3F)c12 (centres undefined) + CCN1C(C(=O)NC23CCC(C(=O)O)(CC2)CC3)C(c2cccc(Cl)c2F)C2(C(=O)Nc3cc(Cl)ccc32)C12CCCCC2", 103),
    ("C=C(F)C(=O)N1CCN(c2nc(OCC3CCCN3C)nc3c2CCN(c2cccc4cccc(Cl)c24)C3)CC1CC#N (centres undefined) + CCN1C(C(=O)NC23CCC(C(=O)O)(CC2)CC3)C(c2cccc(Cl)c2F)C2(C(=O)Nc3cc(Cl)ccc32)C12CCCCC2", 100),
    ("O=C(c1ccc(F)c(F)c1Nc1ccc(I)cc1F)N1CC(O)([C@@H]2CCCCN2)C1 + CCN1C(C(=O)NC23CCC(C(=O)O)(CC2)CC3)C(c2cccc(Cl)c2F)C2(C(=O)Nc3cc(Cl)ccc32)C12CCCCC2", 126),
]

Turning now to a further record.
Exercise: Identify the reported viability, T/C for the following entry. C=CC(=O)N1CCN(c2nc(=O)n(-c3c(C)ccnc3C(C)C)c3nc(-c4c(O)cccc4F)c(F)cc23)C(C)C1 (centres undefined) + CCN1C(C(=O)NC23CCC(C(=O)O)(CC2)CC3)C(c2cccc(Cl)c2F)C2(C(=O)Nc3cc(Cl)ccc32)C12CCCCC2
Solution: 98.5

###

Test system: NCI-H510 multicellular tumor spheroid growth, % test/control
ASSAY_SUMMARY: Anticancer human tumor NCI-H510 cell line growth inhibition [Asc];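 further: spheroids exposed to agents for 7 days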;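 on viability, T/C: 100% = DMSO vehicle control wells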
CONDITION_LABEL: second compound 1 µM; first compound 0.1 µM; stronger effect = lower value
Text: Multicellular complex tumor spheroid response to apoptosis pathway targeting inhibitors Alrizomadlin, Pelcitoclax, and Dasminapant in combination with a variety of drugs and investigational agents in selected tumor cell lines […] Compounds. […] If the clinical Cmax for an agent had not been determined, the highest concentration tested was 10 microM. […]
PARAMETER_MEASURED: viability, T/C (%)
Enter your answer as a number in %; do not include the unit.

See these solved cases before continuing.
# MOLECULE, SYSTEM_TESTED, UNIT_OF_MEASUREMENT, REPORTED_RESULT
records = [
    ("C=C(F)C(=O)N1CCN(c2nc(OCC3CCCN3C)nc3c2CCN(c2cccc4cccc(Cl)c24)C3)CC1CC#N (configuration not stated) + Cc1c(S(C)(=O)=O)c(-c2cc(F)cc(N3CCN(c4ccc(NS(=O)(=O)c5ccc(NC(CCN6CCC(C(=O)OCCCP(=O)(O)O)CC6)CSc6ccccc6)c(S(=O)(=O)C(F)(F)F)c5)cc4)CC3)c2)c(-c2ccc(Cl)cc2)n1C(C)C", "NCI-H510 multicellular tumor spheroid growth, % test/control", "%", 125),
    ("C=CC(=O)N1CCN(c2nc(=O)n(-c3c(C)ccnc3C(C)C)c3nc(-c4c(O)cccc4F)c(F)cc23)C(C)C1 (configuration not stated) + CNC(C)C(=O)NC1CN(S(=O)(=O)c2cccc(S(=O)(=O)N3CCC4CCC(C(=O)NC(c5ccccc5)c5ccccc5)N4C(=O)C(NC(=O)C(C)NC)C3)c2)CCC2CCC(C(=O)NC(c3ccccc3)c3ccccc3)N2C1=O", "NCI-H510 multicellular tumor spheroid growth, % test/control", "%", 105),
    ("NC1CCC(NC2CC2c2ccccc2)CC1 (configuration not stated) + CNC(C)C(=O)NC1CN(S(=O)(=O)c2cccc(S(=O)(=O)N3CCC4CCC(C(=O)NC(c5ccccc5)c5ccccc5)N4C(=O)C(NC(=O)C(C)NC)C3)c2)CCC2CCC(C(=O)NC(c3ccccc3)c3ccccc3)N2C1=O", "NCI-H510 multicellular tumor spheroid growth, % test/control", "%", 101),
    ("O=C(c1cc(Cc2n[nH]c(=O)c3ccccc23)ccc1F)N1CCN(C(=O)C2CC2)CC1 + CNC(C)C(=O)NC1CN(S(=O)(=O)c2cccc(S(=O)(=O)N3CCC4CCC(C(=O)NC(c5ccccc5)c5ccccc5)N4C(=O)C(NC(=O)C(C)NC)C3)c2)CCC2CCC(C(=O)NC(c3ccccc3)c3ccccc3)N2C1=O", "NCI-H510 multicellular tumor spheroid growth, % test/control", "%", 110),
    ("CCN1CCN(Cc2ccc(Nc3ncc(F)c(-c4cc(F)c5nc(C)n(C(C)C)c5c4)n3)nc2)CC1 + CNC(C)C(=O)NC1CN(S(=O)(=O)c2cccc(S(=O)(=O)N3CCC4CCC(C(=O)NC(c5ccccc5)c5ccccc5)N4C(=O)C(NC(=O)C(C)NC)C3)c2)CCC2CCC(C(=O)NC(c3ccccc3)c3ccccc3)N2C1=O", "NCI-H510 multicellular tumor spheroid growth, % test/control", "%", 115),
    ("O=C(c1cc(Cc2n[nH]c(=O)c3ccccc23)ccc1F)N1CCN(C(=O)C2CC2)CC1 + Cc1c(S(C)(=O)=O)c(-c2cc(F)cc(N3CCN(c4ccc(NS(=O)(=O)c5ccc(NC(CCN6CCC(C(=O)OCCCP(=O)(O)O)CC6)CSc6ccccc6)c(S(=O)(=O)C(F)(F)F)c5)cc4)CC3)c2)c(-c2ccc(Cl)cc2)n1C(C)C", "NCI-H510 multicellular tumor spheroid growth, % test/control", "%", 112),
]

Turning now to a further record.
Exercise: Identify the reported viability, T/C for the following entry. C=CC(=O)N1CCN(c2nc(=O)n(-c3c(C)ccnc3C(C)C)c3nc(-c4c(O)cccc4F)c(F)cc23)C(C)C1 (configuration not stated) + Cc1c(S(C)(=O)=O)c(-c2cc(F)cc(N3CCN(c4ccc(NS(=O)(=O)c5ccc(NC(CCN6CCC(C(=O)OCCCP(=O)(O)O)CC6)CSc6ccccc6)c(S(=O)(=O)C(F)(F)F)c5)cc4)CC3)c2)c(-c2ccc(Cl)cc2)n1C(C)C
Solution: 89.5
